// reported inhibition zone (IZ) per item
System: Bacillus cereus
EXPERIMENT_NOTES: Antibacterial activity against Bacillus cereus MTCC 430; further: test concentration or dose not given here
Type: functional

>  <MOL>
Cc1cccc(Oc2nc(-c3ccc(NC(=S)Nc4ccccc4)cc3)nc3ccccc23)c1

>  <VALUE_REPORTED>
24 mm

$$$$
>  <MOL>
COc1ccc(NC(=S)Nc2ccc(-c3nc(Oc4cccc(C)c4)c4ccccc4n3)cc2)cc1

>  <VALUE_REPORTED>
24 mm

$$$$
>  <MOL>
CCOc1ccc(NC(=S)Nc2ccc(-c3nc(Oc4cccc(C)c4)c4ccccc4n3)cc2)cc1

>  <VALUE_REPORTED>
19 mm

$$$$
>  <MOL>
Cc1ccc(NC(=O)Nc2ccc(-c3nc(Oc4cccc(C)c4)c4ccccc4n3)cc2)cc1

>  <VALUE_REPORTED>
24 mm

$$$$
>  <MOL>
Cc1ccc(NC(=S)Nc2ccc(-c3nc(Oc4cccc(C)c4)c4ccccc4n3)cc2)cc1

>  <VALUE_REPORTED>
21 mm

$$$$
>  <MOL>
CC1(C)S[C@@H]2[C@H](NC(=O)[C@H](N)c3ccccc3)C(=O)N2[C@H]1C(=O)O

>  <VALUE_REPORTED>
28 mm

$$$$

Q. Consider the molecule shown here: Cc1cccc(Oc2nc(-c3ccc(NC(=S)Nc4ccc(Br)cc4)cc3)nc3ccccc23)c1 What is its recorded inhibition zone (IZ)?
A. 26 mm

Q. Which inhibition zone (IZ) reading was recorded for the molecule Cc1cccc(Oc2nc(-c3ccc(NC(=O)Nc4ccc(F)cc4)cc3)nc3ccccc23)c1 ?
A. 21 mm

Q. Quick one: inhibition zone (IZ) for Cc1cccc(Oc2nc(-c3ccc(NC(=S)Nc4ccc(Cl)cc4)cc3)nc3ccccc23)c1 ?
A. 27 mm
